# Test system: HT29 colon
# Run description: NCI tumour cell line growth inhibition, 48 h
Where a SMILES comes first, the peptide text is derived from it. [ ]: non-standard residue; d: D form. Phe(4-Cl) = N[CH](Cc1ccc(Cl)cc1)C(=O)O
Quick list: TGI per entry.
Number only, in µM; omit the unit.

Below are worked cases with known answers.
CCCN(CCc1ccc(-c2ccccc2)cc1)CCc1ccc2n[nH]nc2c1 | 23.6
Cc1ccc2nc3c(C(=O)NCCN(C)C)cccc3nc2c1 | 15.4
Cc1cccc(N/C(=C(/C(Cl)=C(Cl)Cl)[N+](=O)[O-])n2nnc3ccccc32)c1 | 33.3
Nc1ccc(/C=C/c2ccnc3ccccc23)cc1 | 65.1

Query string: Determine from records and report TGI for O=C(CCl)Nc1ccc(Cl)cc1
Result string: 4.26

Query string: Determine from records and report TGI for CC1=NN(c2cccc(S(=O)(=O)O)c2)C2(C1)C(Cl)C(=O)N2c1nc2ccccc2s1 (centres undefined)
Result string: 22.2

Query string: Determine from records and report TGI for CC(O)C(NC(=O)C(Cc1ccccc1)NC(=O)C(NC(=O)C(CCCCN)NC(=O)C(Cc1c[nH]c2ccccc12)NC(=O)C(Cc1ccc(O)cc1)NC(=O)C(Cc1ccc(Cl)cc1)NC(=O)C(N)Cc1ccccc1)C(C)O)C(N)=O (centres undefined) (H-F[Phe(4-Cl)]YWKTFT-NH2; configuration not given here)
Result string: 62.8

Query string: Determine from records and report TGI for Cc1c2c(cc3c1C(=O)C(=O)C([C@@H](C)CO)=C3O)C(C)(C)CCC2
Result string: 30.6

Query string: Determine from records and report TGI for CN(C)CCn1c(=O)c2ccc(NCCNCCO)c3c(=O)c4ccccc4n(c1=O)c23
Result string: 4.6

Query string: Determine from records and report TGI for COc1cc(C(=O)NNC(=O)c2cc(Br)ccc2NC(=O)c2cccs2)cc(OC)c1OC
Result string: 41.1
